The measurements presented in this section are drawn from paper PMC6943527.

Test: Plasma protein binding, TRANSIL XL PPB assay
Details: human, immobilized HSA and AGP at 24:1 (TRANSIL XL PPB assay)
measurement label: fraction unbound at 12 min, 5 µM
Simply state the number, no unit and no words.

fraction unbound at 12 min, 5 µM reading for CN1CCN(c2nc(N)nc(CN3C(=O)NC(C)(c4ccc5ccccc5c4)C3=O)n2)CC1 (stereo not shown) : 0.155

---

Experiment: Parallel artificial membrane permeability assay (PAMPA)
Conditions: PAMPA, pH 7.4
Reported Papp at 5 h, 200 µM by item:
Provide only the numeric value, understood in ×10⁻⁶ cm/s.

compound	value measured
CN1CCN(c2nc(N)nc(CN3C(=O)N(Cc4ccc(Cl)cc4)C(C)(C)C3=O)n2)CC1	24.9

Then this compound:
Papp at 5 h, 200 µM in this record for CN1CCN(c2nc(N)nc(CN3C(=O)NC(C)(c4ccc5ccccc5c4)C3=O)n2)CC1 (centres unmarked) : 3.76

---

Assay: Caco-2 permeability assay
Type: in vitro ADME
Conditions: human, Caco-2; 10 µM in apical chamber, 2 h, 37 °C, two experiments; read-out: Caco-2 Papp ± SD
measurement label: Papp at 2 h, 10 µM (×10⁻⁶ cm/s)
Write the value in ×10⁻⁶ cm/s as a bare number.

CN1CCN(c2nc(N)nc(CN3C(=O)NC(C)(c4ccc5ccccc5c4)C3=O)n2)CC1 (stereo not shown) yielded Papp at 2 h, 10 µM of 6.27
